B1: Peroxisomal bifunctional enzyme (Homo sapiens), Q08426 (parent)
chain: MAEYTRLHNALALIRLRNPPVNAISTTLLRDIKEGLQKAVIDHTIKAIVICGAEGKFSAGADIRGFSAPRTFGLTLGHVVDEIQRNEKPVVAAIQGMAFGGGLELALGCHYRIAHAEAQVGLPEVTLGLLPGARGTQLLPRLTGVPAALDLITSGRRILADEALKLGILDKVVNSDPVEEAIRFAQRVSDQPLESRRLCNKPIQSLPNMDSIFSEALLKMRRQHPGCLAQEACVRAVQAAVQYPYEVGIKKEEELFLYLLQSGQARALQYAFFAERKANKWSTPSGASWKTASARPVSSVGVVGLGTMGRGIVISFARARIPVIAVDSDKNQLATANKMITSVLEKEASKMQQSGHPWSGPKPRLTSSVKELGGVDLVIEAVFEEMSLKKQVFAELSAVCKPEAFLCTNTSALDVDEIASSTDRPHLVIGTHFFSPAHVMKLLEVIPSQYSSPTTIATVMNLSKKIKKIGVVVGNCFGFVGNRMLNPYYNQAYFLLEEGSKPEEVDQVLEEFGFKMGPFRVSDLAGLDVGWKSRKGQGLTGPTLLPGTPARKRGNRRYCPIPDVLCELGRFGQKTGKGWYQYDKPLGRIHKPDPWLSKFLSRYRKTHHIEPRTISQDEILERCLYSLINEAFRILGEGIAASPEHIDVVYLHGYGWPRHKGGPMFYASTVGLPTVLEKLQKYYRQNPDIPQLEPSDYLKKLASQGNPPLKEWQSLAGSPSSKL

variants of: B1; details: with actb_human ACTB
Metric Name: effect of a mutation on the interaction

- S703F: with no effect
- R556G: with no effect
- L715S: with no effect

Where do the numbers come from? From IntAct's records for PubMed 31515488.
